Property: max % inhibition, Abeta x-40 in mouse cortical neurons; scope: individual binders
- experimental_target: BACE1 endogenous to primary cortical neurons from E16.5 CD1 mice (mouse, UniProt P56818 46-501)
- Sequence (P56818 46-501): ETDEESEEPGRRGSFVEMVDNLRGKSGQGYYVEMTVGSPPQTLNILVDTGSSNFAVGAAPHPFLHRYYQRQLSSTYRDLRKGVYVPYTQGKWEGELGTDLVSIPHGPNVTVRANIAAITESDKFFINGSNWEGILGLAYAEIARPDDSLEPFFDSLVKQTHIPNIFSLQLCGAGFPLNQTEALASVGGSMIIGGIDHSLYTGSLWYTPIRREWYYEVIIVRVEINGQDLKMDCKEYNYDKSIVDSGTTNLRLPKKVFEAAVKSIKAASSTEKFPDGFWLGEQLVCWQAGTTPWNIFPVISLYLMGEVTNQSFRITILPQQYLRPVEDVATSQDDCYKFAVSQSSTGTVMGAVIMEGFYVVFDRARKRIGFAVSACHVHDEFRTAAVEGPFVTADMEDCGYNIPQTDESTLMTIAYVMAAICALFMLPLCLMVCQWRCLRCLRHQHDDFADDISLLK
- experimental_details: cell-based or functional assay
value_kind: max % inhibition, Abeta x-40 in mouse cortical neurons (%)

binder	measured
6300 (antibody, V domains shown) VH: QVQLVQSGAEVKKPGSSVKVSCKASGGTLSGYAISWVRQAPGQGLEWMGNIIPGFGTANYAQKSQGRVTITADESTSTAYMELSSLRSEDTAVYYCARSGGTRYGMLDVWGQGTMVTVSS VL: EIVLTQSPATLSVSPGERATLSCRASQSVGSNLAWYQQKPGQAPRLLIYGASTRATGIPARFSGSGSGTEFTLTISSLQSEDFAVYYCQQSFLWPPRTFGGGTKVEIK	71
6309 (antibody, V domains shown) VH: QLQLQESGPGLVKPSETLSLTCTVSGGSISWSSYYWSWIRQPPGKGLEWIGSIYRSGRTYYNPSLKSRVTISVDTSKNQFSLKLSSVTAADTAVYYCARVGHGINYFDLWGRGTLVTVSS VL: EIVLTQSPATLSLSPGERATLSCRASQSVSSYLAWYQQKPGQAPRLLIYDASNRATGIPARFSGSGSGTDFTLTISSLEPEDFAVYYCQQSITWPPRTFGGGTKVEIK	60
6299 (antibody, V domains shown) VH: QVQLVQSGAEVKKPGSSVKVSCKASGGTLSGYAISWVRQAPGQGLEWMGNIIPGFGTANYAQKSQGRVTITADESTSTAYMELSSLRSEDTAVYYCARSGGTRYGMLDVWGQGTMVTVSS VL: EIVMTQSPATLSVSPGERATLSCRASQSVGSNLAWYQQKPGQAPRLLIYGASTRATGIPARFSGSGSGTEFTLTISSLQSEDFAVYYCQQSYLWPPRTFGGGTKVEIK	70
